tested on: OVCAR-8 ovarian; test: NCI-60 one-dose screen, 48 h (100 = growth as untreated, 0 = no growth, -100 = all killed); conditions: 10 µM unless noted
This is part of a sample that, as a whole, favours compounds with a hit. Of some 83,000 tested, about 20% had one in any assay. Calls of active or inactive are those of the source. The calls were made as follows: active = growth percent below 10; inactive = the rest.
resultType: growth

Data request: Please give the documented growth of "COc1ccc(-c2cc(-c3ccc(Nc4ccnc5cc(Cl)ccc45)cc3)nc(N3CCOCC3)n2)cc1"
Data returned: 15.3% (inactive)

Data request: Dear colleague, please send me the reported growth for "Cc1cc(C)nc(SC2=C(Nc3cc(Cl)ccc3O)C(=O)N(Cc3ccccc3)C2=O)n1" when you can.
Data returned: 76.4% [30 µM] (inactive)

Data request: Item "COc1ccc(N=Nc2nccs2)c(O)c1" : provide growth
Data returned: 20.2% (inactive)

Data request: Check the records and state growth for "N#CCCN=Nc1c(O)[nH]c2ccc(F)cc12"
Data returned: 107% (inactive)

Data request: // Input: "O=C1CC(=NCC(=O)n2c(-c3ccccc3)nc3ccccc32)NN1" . Output its growth only.
Data returned: 102% (inactive)

Data request: Consider the molecule "COc1cccc(-c2nc3sccn3c2-c2ccnc(NCCCNS(=O)(=O)c3cccc(Cl)c3)c2)c1" and give its recorded growth.
Data returned: 26.3% (inactive)

Data request: Please give measured growth of the following entry: "C#CCOc1ccc2ncnc(NCc3cccc(NC(=O)CCl)c3)c2c1"
Data returned: 17.2% [8.25 µM] (inactive)

Data request: Give the reported growth for this molecule. "CC(C)(C)c1cc(C(C)(C)C)cc(S(=O)(=O)Nc2cc3ccccc3cc2C(=O)NCCN)c1"
Data returned: 5.01% (active)

Data request: Quote growth reported for "Cc1cc(N2CCN(c3ccnc4cc(Cl)ccc34)CC2)nc(N2CCOCC2)n1" please.
Data returned: 96.2% (inactive)

Data request: Supply recorded growth for Nc1n[nH]c2ccc([C@@H]3Nc4ccc5[nH]ncc5c4[C@H]4C5C=CC(C5)[C@@H]34)cc12 (some centres not stated) here.
Data returned: 27.1% (inactive)

Data request: Tell me measured growth for c1csc(C2=NN3C(C2)c2ccccc2OC3c2ccncc2)c1 (configuration not stated) please.
Data returned: 96.1% (inactive)

Data request: Retrieve growth measured for "Cc1ccc(/C=C2\SC(=S)N(CC(=O)NCCCN3CCOCC3)C2=O)cc1" and print it.
Data returned: 96.4% (inactive)

Data request: Return value of growth for input "C(=N/Nc1ncc(-c2cc3cc(-c4ccccc4)ccc3o2)s1)/c1cccs1" , no commentary.
Data returned: 99.5% (inactive)

Data request: For the molecule "C=C1c2nc3ccccc3n2C=C(c2cccc(Cl)c2)N1Cc1ccc(OC)cc1" , give its measured growth value.
Data returned: 9.77% (active)

Data request: Respond only with growth recorded for CC(C)(C)N1CCC1CN (configuration not stated)
Data returned: 97.5% (inactive)

Data request: Please list growth recorded for the molecule O=C1NC(=O)C(c2ccc(Cl)cc2Cl)N1 (configuration not stated)
Data returned: 112% (inactive)

Data request: Supply recorded growth for "CCCCCC(=O)Oc1ccc(/C(=C(\C)c2ccc(OC)cc2)c2ccc(OCCN3CCCCC3)cc2)cc1" here.
Data returned: 74.3% (inactive)

Data request: Output measured growth for this item: "Cc1cc(NS(=O)(=O)c2ccc(-c3cnc(C4CC4)o3)cc2)ccc1Cl"
Data returned: 12.9% (inactive)

Data request: Specify measured growth for "O=C(COc1ccc(/C=C2\COc3ccccc3C2=O)cc1)Nc1nccs1" .
Data returned: 85% (inactive)

Data request: Note down growth recorded for "CN1CCN(c2ccc(Nc3c4ccccc4nc4ccccc34)cc2)CC1"
Data returned: 100% (inactive)

Data request: Indicate the recorded growth value for this molecule: "CSc1ccc(-c2ccccc(=O)c2O)cc1"
Data returned: 14.6% (inactive)

Data request: Answer with the recorded growth for the molecule listed here: "CCCc1cc(=O)n2c(C(=O)Nc3cccc(C(=O)OCC)c3)c(C(=O)Nc3ccc(F)cc3)sc2n1"
Data returned: -19.2% [30 µM] (active)

The measured values listed here are drawn from PubChem BioAssay (NCI).
